Source listed as ChEMBL document CHEMBL5360579.

Please provide measured IC50 at 48 h for the entries that follow.
Assay Procedure: Cytotoxicity against hTERT-RPE1 cells assessed as inhibition of cell proliferation incubated for 48 hrs by MTT assay
Format: toxicity, cell-based, TERT-RPE1
Assay Context: human
Number only, in µM; omit the unit.

// field: IC50 at 48 h; key: O=C(c1cc(Br)ccc1O)c1[nH]c(Cl)c(Br)c1Br ; value = 61.5

// field: IC50 at 48 h; key: O=C(c1cc(Br)ccc1O)c1[nH]c(Br)c(Br)c1Br ; value = 62.8

// field: IC50 at 48 h; key: O=C(c1cc(Br)ccc1O)c1[nH]c(Cl)c(Cl)c1Br ; value = 175

// field: IC50 at 48 h; key: O=C(c1cc(Br)ccc1O)c1[nH]c(Br)c(Cl)c1Br ; value = 86.6

// field: IC50 at 48 h; key: O=C(c1cc(Br)cc(Br)c1O)c1[nH]c(Br)c(Br)c1Br ; value = 57.7
